# credit: ChEMBL document CHEMBL1153532

# reported concentration at 0.5 h; entries follow
assayProcedure: Drug level in Sprague-Dawley rat brain at 10 mg/kg, po after 0.5 hrs
Format: ADME, organism-based
Design: dose 10 mg/kg, route oral
studyConditions: read-out: Drug uptake
measurementKind: concentration at 0.5 h

[[record]]
smilesnotation = "C[C@@H]1CCCN1CCc1ccc(-c2ccc(S(=O)(=O)NC3CCOCC3)cc2)cc1"
measurement = "140 ng/mL"

[[record]]
smilesnotation = "COCCNS(=O)(=O)c1ccc(-c2ccc(CCN3CCC[C@H]3C)cc2)cc1"
measurement = "8700 ng/mL"

[[record]]
smilesnotation = "C[C@@H]1CCCN1CCc1ccc(-c2ccc(S(N)(=O)=O)cc2)cc1"
measurement = "800 ng/g"

[[record]]
smilesnotation = "CCNS(=O)(=O)c1ccc(-c2ccc(CCN3CCC[C@H]3C)cc2)cc1"
measurement = "3600 ng/mL"

[[record]]
smilesnotation = "C[C@@H]1CCCN1CCc1ccc(-c2ccc(S(=O)(=O)N3CCOCC3)cc2)cc1"
measurement = "320 ng/mL"

